Field: pIC50. Provide a value for each of the molecules that follow.
Test system: rat aorta
Test: inhibition of calcium-induced contraction (change in tension) of spirally cut strips of rat aorta in K+ 45 mM saline
Format: cell-based
Conditions: 0.75 h, 45 millimolar potassium, 2 millimolar calcium, 45 minutes, read-out: IC50 (molar concentration required to reduce the response by 50%)
Answers are plain numbers, as −log10 of the molar value.

Use these answered entries as a reference point.
molecule="CCOC(=O)C1=C(COCCNc2ccncn2)NC(C)=C(C(=O)OC)C1c1ccccc1Cl (stereo not drawn) [Example 10]" value_measured=8.72
molecule="CCOC(=O)C1=C(COCCNC2=NCCN2)NC(C)=C(C(=O)OC)C1c1ccccc1Cl (stereo not drawn) [Example 21]" value_measured=7.00
molecule="CCOC(=O)C1=C(COCCNc2nc(N)c3cc(OC)c(OC)cc3n2)NC(C)=C(C(=O)OC)C1c1ccccc1Cl (stereo not drawn) [Example 34]" value_measured=7.88

Give one value of pIC50 per listed molecule.
1. CCOC(=O)C1=C(COCCNc2nccc(C(N)=O)n2)NC(C)=C(C(=O)OC)C1c1ccccc1Cl (stereo not drawn) [Example 29]
2. CCOC(=O)C1=C(COCCNc2cnccn2)NC(C)=C(C(=O)OC)C1c1cccc(Cl)c1Cl (stereo not drawn) [Example 89]
3. CCOC(=O)C1=C(COCCNc2ccc(S(=O)(=O)N3CCOCC3)cn2)NC(C)=C(C(=O)OC)C1c1cccc(Cl)c1Cl (stereo not drawn) [Example 45]
4. CCOC(=O)C1=C(COCCNC2=NC(=O)CS2)NC(C)=C(C(=O)OC)C1c1ccccc1Cl (stereo not drawn) [Example 74]
5. CCOC(=O)C1=C(COCCNc2cc[nH]c(=O)n2)NC(C)=C(C(=O)OC)C1c1cccc(C(F)(F)F)c1Cl (stereo not drawn) [Example 62]
6. CCOC(=O)C1=C(COCCNc2ccnc(N)n2)NC(C)=C(C(=O)OC)C1c1cccc(Cl)c1Cl (stereo not drawn) [Example 40]
7. CCOC(=O)C1=C(COCCNc2ncc(S(=O)(=O)N(C)C)s2)NC(C)=C(C(=O)OC)C1c1ccccc1Cl (stereo not drawn) [Example 26]

Solution:
7.74
9.30
8.96
7.70
8.87
8.65
8.43

Give one value of pIC50 per listed molecule.
1. CCOC(=O)C1=C(COCCNc2nccc(=O)[nH]2)NC(C)=C(C(=O)OC)C1c1ccccc1Cl (stereo not drawn) [Example 8]
2. CCOC(=O)C1=C(COCCNc2nc(C)cc(=O)[nH]2)NC(C)=C(C(=O)OC)C1c1cccc(Cl)c1Cl (stereo not drawn) [Example 42]
3. CCOC(=O)C1=C(COCCNc2nccc(=O)[nH]2)NC(C)=C(C(=O)OC)C1c1cccc(Cl)c1Cl (stereo not drawn) [Example 39]

Solution:
[7.98, 8.38, 8.57]

Give one value of pIC50 per listed molecule.
1. CCOC(=O)C1=C(COCCNc2nc(-c3ccccn3)cc(=O)[nH]2)NC(C)=C(C(=O)OC)C1c1cccc(Cl)c1Cl (stereo not drawn) [Example 44]
2. CCOC(=O)C1=C(COCCNc2ccc(S(=O)(=O)N3CCCCC3)cn2)NC(C)=C(C(=O)OC)C1c1cccc(Cl)c1Cl (stereo not drawn) [Example 46]

Solution:
[7.80, 8.52]

Origin of the recorded values: patent US4572908A
